Test: Cytotoxicity in MRC-5 cells (VZV assay)
Format: cell-based
Details: human, beside VZV
Readout: CC50

Item: CC(C)OC(=O)[C@H](C)NP(=O)(OC[C@H]1O[C@@H](n2ccc(=O)[nH]c2=S)[C@](C)(O)C1O)Oc1ccccc1 (stereo partly shown) | CC50: > 100 µM

---

Experiment: Cytotoxicity panel, Huh-7
Details: human, Huh-7 cells, Cytotoxicity (CC50 uM) Huh-7, Huh-7
Readout: CC50

Look over these answered cases.
// recorded CC50 for C#C[C@]1(COP(=O)(N[C@@H](C)C(=O)OC(C)C)Oc2ccccc2)O[C@@H](n2ccc(=O)[nH]c2=S)[C@@H](O)C1O (stereo partly shown) [ENUC-02069-1] : > 400 µM

Quick note, CC50 for CC(C)OC(=O)[C@H](C)NP(=O)(OC[C@H]1O[C@@H](n2ccc(=O)[nH]c2=[Se])[C@](C)(O)C1O)Oc1ccccc1 (stereo partly shown) [ENUC-02058-1] landed at > 100 µM

Lab note: each molecule below needs its CC50 filled in.
1. CC(C)OC(=O)[C@H](C)NP(=O)(OC[C@H]1O[C@@H](n2ccc(=O)[nH]c2=S)[C@@H](C)C1O)Oc1ccccc1 (stereo partly shown) [ENUC-02078-1]
2. C[C@@]1(F)C(O)[C@@H](CO)O[C@H]1n1ccc(=S)[nH]c1=O (stereo partly shown) [ENUC-01946-1]

> 400 µM
> 400 µM
